These data points were gathered from ChEMBL document CHEMBL1128471.

Target: Potassium-transporting ATPase (Sus scrofa)
Sequence (P18434 whole entry): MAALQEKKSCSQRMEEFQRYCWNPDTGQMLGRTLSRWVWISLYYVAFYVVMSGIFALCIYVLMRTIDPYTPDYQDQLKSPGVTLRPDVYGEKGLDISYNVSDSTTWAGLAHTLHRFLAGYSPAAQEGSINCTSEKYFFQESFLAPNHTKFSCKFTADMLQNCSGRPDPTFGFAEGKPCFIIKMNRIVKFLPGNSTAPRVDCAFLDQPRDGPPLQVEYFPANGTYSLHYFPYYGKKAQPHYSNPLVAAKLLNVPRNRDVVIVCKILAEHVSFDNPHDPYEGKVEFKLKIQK
Sequence (P19156 whole entry): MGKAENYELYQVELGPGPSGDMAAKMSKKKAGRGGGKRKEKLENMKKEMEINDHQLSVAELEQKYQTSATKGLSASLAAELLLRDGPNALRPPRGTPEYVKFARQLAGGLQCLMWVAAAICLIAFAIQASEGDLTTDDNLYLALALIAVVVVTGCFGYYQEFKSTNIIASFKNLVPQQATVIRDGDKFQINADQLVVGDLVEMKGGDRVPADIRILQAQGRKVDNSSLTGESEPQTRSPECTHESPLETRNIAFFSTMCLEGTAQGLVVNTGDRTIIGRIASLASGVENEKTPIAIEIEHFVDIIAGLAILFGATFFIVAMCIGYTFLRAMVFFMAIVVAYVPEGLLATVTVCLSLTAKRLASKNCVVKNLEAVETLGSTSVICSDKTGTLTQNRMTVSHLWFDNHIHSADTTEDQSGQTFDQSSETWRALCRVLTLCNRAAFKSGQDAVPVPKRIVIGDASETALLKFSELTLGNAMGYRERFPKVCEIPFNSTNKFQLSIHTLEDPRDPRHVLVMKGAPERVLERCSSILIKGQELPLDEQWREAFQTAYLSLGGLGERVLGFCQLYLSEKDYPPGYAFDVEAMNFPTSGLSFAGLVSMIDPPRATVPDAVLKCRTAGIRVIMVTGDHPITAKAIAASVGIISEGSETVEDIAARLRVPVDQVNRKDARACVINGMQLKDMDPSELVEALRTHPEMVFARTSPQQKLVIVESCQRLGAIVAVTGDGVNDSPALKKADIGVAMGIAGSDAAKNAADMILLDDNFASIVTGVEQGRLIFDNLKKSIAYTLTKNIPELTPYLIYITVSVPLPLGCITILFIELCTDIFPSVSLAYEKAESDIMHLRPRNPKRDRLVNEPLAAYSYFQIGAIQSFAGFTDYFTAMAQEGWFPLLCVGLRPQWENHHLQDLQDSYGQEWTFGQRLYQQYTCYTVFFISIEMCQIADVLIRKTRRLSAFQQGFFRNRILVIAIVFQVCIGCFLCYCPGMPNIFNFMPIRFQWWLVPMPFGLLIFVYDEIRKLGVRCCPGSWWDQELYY
Test: Inhibition of K+ -stimulated gastric ATPase activity was measured using lyophilized gastric vesicles at pH 7
Assay type: tissue-based, Stomach
readoutName: pIC50
By convention, pIC50 is the negative base-10 log of a molar concentration.

GET /values?readout=pIC50&item= CCC(=O)c1cnc2c(CO)cccc2c1Nc1ccccc1C
6.42

Can you check Cc1ccccc1Nc1c(C(=O)C(C)C)cnc2c(O)cccc12 next?
5.92

Can you check CCCC(=O)c1cnc2c(OCCOCCOCCO)cccc2c1Nc1ccc(F)cc1C next?
5.44

Can you check CCCC(=O)c1cnc2c(CC(=O)O)cccc2c1Nc1ccccc1C next?
5.14

Can you check CCCC(=O)c1cnc2c(OC)cccc2c1Nc1ccc(OC)cc1OC next?
5.68

Can you check CCCC(=O)c1cnc2ccc(O)cc2c1Nc1ccccc1C next?
6.62

Can you check CCCC(=O)c1cnc2c(COC(=O)NC)cccc2c1Nc1ccccc1C next?
5.18

Can you check CCC(=O)c1cnc2c(OCCOC)cccc2c1Nc1ccccc1C next?
6.11

Can you check CCCC(=O)c1cnc2c(OCCCN3CCOCC3)cccc2c1Nc1ccccc1C next?
6.05

Can you check CCCC(=O)c1cnc2c(OCCCN(C)CCCc3ccccc3)cccc2c1Nc1ccccc1C next?
6.13

Can you check CCCC(=O)c1cnc2c(O)cccc2c1Nc1ccccc1C next?
5.48

Can you check CCCC(=O)c1cnc2c(CCCO)cccc2c1Nc1ccccc1C next?
5.59

Can you check CCCC(=O)c1cnc2c(C)cccc2c1Nc1ccccc1C next?
5.52
